Target: T1, PVRIG (FACS-based competition assay of FIGS. 7 and 15) (Homo sapiens, UniProt Q6DKI7)
T1 construct: made because the format of the assay is only described in U.S. Ser. No. 15/048,967; also called human PVRIG
T1 sequence (receptor, looked up): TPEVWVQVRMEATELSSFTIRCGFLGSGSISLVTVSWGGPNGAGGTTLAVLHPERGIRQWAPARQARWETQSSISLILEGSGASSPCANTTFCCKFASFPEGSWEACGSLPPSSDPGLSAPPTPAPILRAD
Test: FACS-based competition assay of PVRIG blocking; format and competitor not given

| Binder | IC50 |
| --- | --- |
| CHA.7.547 (antibody, V domains shown) VH: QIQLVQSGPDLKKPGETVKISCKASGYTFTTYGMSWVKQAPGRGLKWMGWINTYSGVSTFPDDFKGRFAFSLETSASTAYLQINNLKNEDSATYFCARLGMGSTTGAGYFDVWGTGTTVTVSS VL: ENVLTQSPAIMSASLGEKVTLSCRASSSVNYMYWYQQKSDASPKLWIYYTSNLAPGVPARFSGSGSGNSYSLTISSVEGEDAATYYCQQFTSSPWTFGGGTKLEIK | 27.9 nM |
| CHA.7.546 (antibody, V domains shown) VH: QIQLVQSGPELKKPGETVKISCKASGYTFTTYGMSWVKQAPGKGLKWMGWINTYSGVSTYADDFEGRFAFSLETSVSTAYLQINNLKNEDTATYFCARLGRGSTTGAGYLDVWGTGTTVTVSS VL: DIVLTQSPAIMSASPGEKVSMTCSASSSVSSWYLHWYQQKSGASPKLWIYGTSNLASGVPARFSGSGSGTSYSLTISSVEAEDAATYYCQQYHSDPYTFGSGTKLEIK | 92 nM |
| CHA.7.550 (antibody, V domains shown) VH: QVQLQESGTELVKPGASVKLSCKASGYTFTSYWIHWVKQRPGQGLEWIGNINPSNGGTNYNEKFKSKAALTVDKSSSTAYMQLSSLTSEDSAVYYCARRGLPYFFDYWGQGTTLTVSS VL: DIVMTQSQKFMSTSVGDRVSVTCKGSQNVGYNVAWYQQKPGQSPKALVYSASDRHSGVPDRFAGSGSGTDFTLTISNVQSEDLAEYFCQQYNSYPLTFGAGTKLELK | 58.3 nM |
